- assay_overview: Plasmodium falciparum growth inhibition, primary screen, strain 3D7, DAPI fluorescence, 100 nL (AID 1184);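 note: parasites grown inside human red blood cells in medium with human serum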
- applied_conditions: P. falciparum 3D7 growth, 3 d, higher = more signal
Task for the reader: assign each of the following compounds its reported z-score.
// response body must contain only the number

For record C[C@]1(C(=O)NCC(F)(F)F)c2ccccc2C(=O)N(Cc2ccc(OC(F)(F)F)cc2)[C@H]1c1ccc(CO)cc1 the listed z-score is -0.231

Kindly note the recorded z-score for COCCCNC(=O)[C@@H]1c2ccccc2C(=O)N(Cc2cc(C(F)(F)F)cc(C(F)(F)F)c2)[C@H]1c1ccc(CO)cc1 , which is -1.14

The compound NCCCC[C@@H]1NC(=O)[C@H]2C[C@@H](C(=O)NCc3ccc(F)cc3)[C@@H](c3cccc(OCCO)c3)N2C1=O showed z-score equal to 0.0979

The compound listed as C=CCC(OC(C)=O)[C@@H]1[C@@H](N(Cc2cccc3ccccc23)C(=O)c2ccc(C)cc2)c2cc(OCCCO)ccc2N1C(=O)c1ccc2ccccc2n1 (some centres not stated) has a reported z-score of -0.344

Per the record, C#CCN(C/C=C/c1ccccc1)[C@H](CO[Si](C)(C)C(C)(C)C)c1ccccc1 has z-score of -0.775

Documented z-score of C=CCC(OC(C)=O)[C@@H]1[C@@H](N(Cc2cccc3ccccc23)C(=O)c2ccc(-c3ccccc3)cc2)c2cc(OCCCO)ccc2N1C(=O)c1ccc2ccccc2n1 (some centres not stated) : -0.198

Value of z-score reported for the compound COCCCNC(=O)[C@@H]1c2ccccc2C(=O)N(C2CCCCC2)[C@H]1c1ccc(CO)cc1 is -1.76

* * *

- assay_overview: osmotic lysis modulators in infected erythrocytes, primary screen, PSAC antagonist project, cell-based, P. falciparum Indochina, OD700, 3 h (AID 1156)
- applied_conditions: higher = more signal, called active from +8 up or from −8 down
Note to self: values exactly at 0.8 are y. So z-score at or above 0.8 is y, below is n.

Ask: Quick check, z-score >= 0.8? N#Cc1ccc(C(O)C2C=CC3C(=O)NC(=O)C3N2Nc2ccccn2)cc1 (centres undefined)
Result: n

Ask: Item COc1ccc([Si](C)(C)[C@@H]2[C@@H](CCO)O[C@]3(C(=O)N(Cc4ccccc4)c4ccc(N5C(=O)c6ccccc6Oc6ccccc65)cc43)[C@H]2C)cc1 with z-score of 0.8 or above?
Result: n

Ask: Check if z-score >= 0.8 (inclusive). Item: O=C1O[C@@H](c2ccccc2)[C@@H](c2ccccc2)N2[C@@H](c3ccc(O)cc3)[C@]3(C(=O)Nc4ccc(C#CC5=CCCCC5)cc43)[C@@H](C(=O)N3CCCCCCC3)[C@H]12
Result: n

Ask: Confirm if z-score reported for the compound COCCCNC(=O)[C@@H]1c2ccccc2C(=O)N(C2CCCCC2)[C@H]1c1ccc(CO)cc1 is 0.8 or above.
Result: n

Ask: Could you tell me if the measured z-score of O=C1C2C=CC(C(O)c3cccs3)N(Nc3ccccc3)C2C(=O)N1c1ccccc1 (centres undefined) reaches 0.8 or more?
Result: y

Ask: Reported z-score at or above 0.8? CC(C)CNC(=O)[C@@H]1c2ccccc2C(=O)N(Cc2ccccc2)[C@H]1c1ccc(CO)cc1
Result: y

Ask: Confirm if z-score reported for the compound O=C1c2ccccc2[C@@]2(Cc3ccccc3N(Cc3ccccc3)C2=O)[C@H](c2ccc(CO)cc2)N1Cc1ccccc1 is 0.8 or above.
Result: n

Ask: Evaluate CC(c1ccccc1)C(O)C1C=CC2C(=O)N(c3ccccc3)C(=O)C2N1Nc1ccc(C#N)cc1 (centres undefined) : z-score at minimum 0.8?
Result: y

Ask: z-score >= 0.8 for CO[C@H]1O[C@H](CO)[C@@H](OC(=O)Nc2ccc3c(c2)OCO3)[C@@H]2OC(=O)[C@@H](Cc3ccccc3)C/C=C/C[C@H](Cc3ccccc3)C(=O)O[C@@H]12 ?
Result: n

Ask: Quick check, z-score >= 0.8? C=C(COC)/C(=C/C[C@H](OC(=O)c1ccncc1)c1cccc(OCCO)c1)c1cnc2ccccc2c1
Result: n

Ask: # bool: z-score of C=C(COC)C(=O)CC[C@@H](OC(C)=O)c1ccc(OCCO)cc1 >= 0.8
Result: n

Ask: API: above_or_equal(metric=z-score, cutoff=0.8) for item CC(C)C[C@@H]1NC(=O)[C@@H]2C[C@H](C(=O)O)[C@H](c3ccc(O)cc3)N2C1=O
Result: n

Ask: Tell me whether z-score is at least 0.8 here: CN(C)C(=O)[C@]1(Cc2ccccc2CN=[N+]=[N-])N=C(c2ccc(OCCCO)cc2)O[C@@H]1c1ccccc1N=[N+]=[N-]
Result: y

Ask: Would you say C=CCNC(=O)[C@H]1[C@@H]2C(=O)O[C@@H](c3ccccc3)[C@@H](c3ccccc3)N2[C@@H](c2ccc(O)cc2)[C@]12C(=O)Nc1ccc(C#CC3=CCCCC3)cc12 shows z-score at minimum 0.8?
Result: n

Ask: Does z-score meet or surpass 0.8 for COc1cccc(C[C@H]2C[C@@H](CO[Si](C(C)C)(C(C)C)C(C)C)N3C(=O)[C@@]4(C(C)=O)O[C@@]23[C@@H]2C(=O)N(C)C(=O)[C@@H]24)c1 ?
Result: n

Ask: Given CN1C(=O)[C@]2(CCS(=O)(=O)c3ccccc3)N=C(c3ccc(OCCCO)cc3)O[C@@H]2c2ccccc21 , state whether its z-score is at least 0.8.
Result: y

Ask: Quick check, z-score >= 0.8? CN(C)CCCCNC(=O)[C@H]1C[C@H]2C(=O)NCC(=O)N2[C@H]1c1cccc(OCCO)c1
Result: n

Ask: For this compound, is measured z-score 0.8 or higher? C=CCOC(=O)[C@@H]1[C@H]2C(=O)O[C@H](c3ccccc3)[C@H](c3ccccc3)N2[C@H](c2ccc(OCCOC(=O)[C@H]3C[C@H]4C(=O)NCC(=O)N4[C@H]3c3ccc(O)cc3)cc2)[C@@]12C(=O)Nc1ccc(I)cc12
Result: n

Ask: Confirm if z-score reported for the compound CC(C)CNC(=O)[C@@H]1c2ccccc2C(=O)N(C2Cc3ccccc3C2)[C@H]1c1ccc(CO)cc1 is 0.8 or above.
Result: y

Ask: Threshold query (z-score >= 0.8) on COCC1=C([C@H](O)CCc2ccccc2)[C@H](CO)n2c(=O)n(-c3ccccc3)c(=O)n2C1
Result: n

Ask: Quick check, z-score >= 0.8? CN1C(=O)[C@]2(CCC(=O)OC(C)(C)C)N=C(c3ccc(OCCCO)cc3)O[C@@H]2c2ccccc21
Result: y

Ask: Item O=C1O[C@H](c2ccccc2)[C@H](c2ccccc2)N2[C@H]1[C@@H](C(=O)NC[C@H](O)c1ccccc1)[C@]1(C(=O)Nc3ccc(C#CCCO)cc31)[C@H]2c1ccccc1OCCO with z-score of 0.8 or above?
Result: n

Ask: Is z-score for CC#CCO[Si](C#CCCCCCC)(C(C)C)C(C)C at or above 0.8?
Result: n

Ask: Hi team, for COC(=O)[C@@]1(Cc2ccc(OC)cc2)[C@H]2c3cc(C(=O)N(C)C)n(Cc4ccsc4Br)c3C[C@H]2CN1C(=O)c1ccccc1 , is the recorded z-score at or above 0.8?
Result: n

Ask: Check the entry [N-]=[N+]=Nc1ccccc1[C@@H]1OC(c2ccc(OCCCO)cc2)=N[C@]1(Cc1ccccc1)C(N)=O : does z-score equal or exceed 0.8?
Result: y

Ask: Given the entry C=CCC(OC(C)=O)[C@@H]1[C@@H](N(Cc2ccc(-c3cccc(C(F)(F)F)c3)o2)C(=O)c2cccc3ccccc23)c2cc(OCCCO)ccc2N1C(=O)c1ccc2ccccc2n1 (some centres undefined) , answer whether its z-score meets or surpasses 0.8.
Result: y

Ask: Could you tell me if the measured z-score of C=C(C(=O)CC[C@@H](OC(C)=O)c1cccc(OCCO)c1)C(C)C reaches 0.8 or more?
Result: y

Ask: Identify whether the reported z-score of the following compound is 0.8 or greater: C=CCNC(=O)[C@@H]1[C@H]2C(=O)O[C@H](c3ccccc3)[C@H](c3ccccc3)N2[C@H](c2ccc(O)cc2)[C@@]12C(=O)Nc1ccc(C#CC3(O)CCCCCC3)cc12
Result: n

Ask: Textbook exercise: given the entry CCCC=C(CCC)[C@@H](NC(=O)c1ccco1)c1ccc(C(=O)OC)cc1 , state whether its z-score is greater than or equal to 0.8.
Result: y
